Each record here notes measured recovery at 2 h, 10 µM.
Assay: Caco-2 permeability assay
Assay type: in vitro ADME, human
Conditions: human, Caco-2, pH 7.4, 10 µM, + Verapamil (P-glycoprotein inhibitor); read-out: Caco-2 A>B Recovery
recordedEndpoint: recovery at 2 h, 10 µM (%)

compound | unitString | val
CCC(C)CNCC(=O)N1CCc2sccc2C1c1cccc(C)c1 (stereo not drawn) | % | 58.6
C=CCNCC(=O)N1CCc2sccc2C1COc1ccc(Cl)cc1 (stereo not drawn) | % | 41.1
CCC(C)CNCC(=O)N1CCc2sccc2C1c1cccc(C)n1 (stereo not drawn) | % | 70

---

Test: in vitro
Conditions: PAMPA, pH 6.5, PAMPA Papp pH 6.5

compound | unitString | Papp at 16 h, 10 μM
Cc1cc(=O)n(-c2ccccc2)n1C [Antipyrine] | ×10⁻⁶ cm/s | 6.6

---

Assay: PAMPA parallel artificial membrane permeability assay
Conditions: PAMPA, pH 7.4
If the reported recovery at 16 h, 10 µM equals or exceeds 90%, assign y. If not, assign n.

compound | label
CCC(C)CNCC(=O)N1CCc2sccc2C1c1cccc(C)n1 (centres unmarked) | n
CC(C)(C)NCC(O)COc1cccc2c1CC(O)C(O)C2 (centres unmarked) [Nadolol, reference compound] | y
C=CCNCC(=O)N1CCc2sccc2C1COc1ccc(Cl)cc1 (centres unmarked) | n
O=c1ccc2ccccc2o1 [Coumarin, reference compound] | y
CCC(C)CNCC(=O)N1CCc2sccc2C1c1cccc(C)c1 (centres unmarked) | n
CCC(C)CNCC(=O)N1CCc2ccccc2C1c1ccccc1 (centres unmarked) | n

---

Test: in vitro
Conditions: PAMPA, pH 6.5

compound | unitString | recovery at 16 h, 10 µM
Cc1cc(=O)n(-c2ccccc2)n1C [Antipyrine] | % | 119

---

Test: in vitro
Conditions: PAMPA, pH 5
recordedEndpoint: recovery at 16 h, 10 µM (%)

compound | recordedEndpoint | val
Cc1cc(=O)n(-c2ccccc2)n1C [Antipyrine] | recovery at 16 h, 10 µM | 109

---

System: HEK293a SHH+ cells
Experiment: MTS assay, cytotoxicity (72 h)
Format: cell-based
Details: 72 h; read-out: MTS Assay (HEK293a SHH+) CC50 (CI95)
recordedEndpoint: CC50

compound | val
CC(C)CNCC(=O)N1CCc2ccccc2C1c1ccccc1 (stereo not drawn) [Compound 39] | > 100 µM
CC(=O)N1CCc2ccccc2C1c1ccccc1 (stereo not drawn) [Compound 37] | > 50 µM
Cc1cccc([C@H]2c3ccsc3CCN2C(=O)CNCC(C)C)n1 [Compound 30] | > 100 µM
CC(C)CNCC(=O)N1CCc2ccccc2C1c1ccccc1 (stereo in doubt) [Compound 43] | > 100 µM
CC[C@H](C)CNCC(=O)N1CCc2sccc2C1c1cccc(C)n1 (stereo partly drawn) [Compound 23] | > 100 µM
CC(=O)N1CCc2sccc2[C@@H]1c1cccc(C)n1 [Compound 29] | > 100 µM

---

Collected viability at 72 h, 12.5 µM values appear next to each entry.
Assay: MTS assay, cytotoxicity (72 h)
Assay type: cell-based
Settings: human, HEK293a SHH+ cells; 12.5 μM, 72 h

molecule | unitString | viability at 72 h, 12.5 µM
N[C@@H](Cc1ccccc1)C(=O)N1CCc2sccc2C1c1ccccc1 (some centres unmarked) | % | 46
CCC(C)CNCC(=O)N1CCc2sccc2C1COc1cccc(C)c1 (centres unmarked) | % | 31
C[C@H](N)C(=O)N1CCc2sccc2C1c1ccccc1 (some centres unmarked) | % | 99
CC(C)CNCC(=O)N1CCc2ccccc2C1c1ccccc1 (stereo in doubt) [Compound 43] | % | 98
CC(=O)N1CCc2ccccc2C1c1ccccc1 (centres unmarked) | % | 101
CC(C)CCNC(=O)N1CCc2ccccc2C1c1ccccc1 (centres unmarked) | % | 14
CCC(C)CNCC(=O)N1CCc2ccc(Cl)cc2C1c1ccccc1 (centres unmarked) | % | 70
O=C([C@@H]1CCCN1)N1CCc2sccc2C1c1ccccc1 (mixture of isomers) | % | 90

---

Assay: PAMPA parallel artificial membrane permeability assay
Conditions: PAMPA, pH 6.5, PAMPA Papp pH 6.5, donor pH 6.5, 10 µM
recordedEndpoint: Papp at 16 h, 10 μM (×10⁻⁶ cm/s)

molecule | recordedEndpoint | cmp | val
CCC(C)CNCC(=O)N1CCc2sccc2C1c1cccc(C)n1 (stereo not shown) | Papp at 16 h, 10 μM | = | 13
CCC(C)CNCC(=O)N1CCc2ccccc2C1c1ccccc1 (stereo not shown) | Papp at 16 h, 10 μM | = | 24.4
CCC(C)CNCC(=O)N1CCc2sccc2C1c1cccc(C)c1 (stereo not shown) | Papp at 16 h, 10 μM | < | 9.7
CC(=O)N1CCc2ccccc2C1c1ccccc1 (stereo not shown) | Papp at 16 h, 10 μM | > | 200
CC(=O)N1CCc2sccc2C1c1ccccc1 (stereo not shown) | Papp at 16 h, 10 μM | = | 117
CC(C)(C)NCC(O)COc1cccc2c1CC(O)C(O)C2 (stereo not shown) [Nadolol, reference compound] | Papp at 16 h, 10 μM | < | 0.4
C=CCNCC(=O)N1CCc2sccc2C1COc1ccc(Cl)cc1 (stereo not shown) | Papp at 16 h, 10 μM | = | 10.9

---

# Lookup of reported inhibition at 25 µM keyed by entry
Target: purified HHAT (Homo sapiens)
Construct: made in house
Sequence (Q5VTY9 whole entry): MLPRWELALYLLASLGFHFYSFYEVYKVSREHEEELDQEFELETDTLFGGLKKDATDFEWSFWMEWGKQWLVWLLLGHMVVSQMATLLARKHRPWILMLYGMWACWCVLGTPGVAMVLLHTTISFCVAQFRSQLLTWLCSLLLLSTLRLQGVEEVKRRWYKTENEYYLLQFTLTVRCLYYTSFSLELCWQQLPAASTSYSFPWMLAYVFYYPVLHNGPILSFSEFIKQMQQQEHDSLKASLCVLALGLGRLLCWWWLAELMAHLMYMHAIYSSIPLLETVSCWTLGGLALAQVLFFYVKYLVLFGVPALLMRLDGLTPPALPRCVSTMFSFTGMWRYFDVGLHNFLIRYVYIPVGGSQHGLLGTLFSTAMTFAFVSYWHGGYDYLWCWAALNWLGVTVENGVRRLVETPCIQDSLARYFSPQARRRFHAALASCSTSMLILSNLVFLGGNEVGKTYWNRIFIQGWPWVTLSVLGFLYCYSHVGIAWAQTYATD
Experiment: Acyl-cLIP assay, inhibition of purified HHAT
Assay type: biochemical

compound | inhibition at 25 µM (%)
CC[C@H](C)CNCC(=O)N1CCc2sccc2C1c1cccc(C)n1 (some centres unmarked) | 87
CC(=O)N1CCc2ccccc2C1c1ccccc1 (centres unmarked) | 55
C[C@H](N)C(=O)N1CCc2sccc2C1c1ccccc1 (some centres unmarked) | 42
CC(C)[C@H](N)C(=O)N1CCc2sccc2C1c1ccccc1 (some centres unmarked) | 9
Cc1cccc([C@H]2c3ccsc3CCN2C(=O)CNCC(C)C)n1 | 92
Cc1cccc(C2NCCc3sccc32)n1 (centres unmarked) | 9
CCCCCCCC(=O)N1CCc2sccc2C1c1ccccc1 (centres unmarked) | 6
CC(=O)N1CCc2sccc2[C@H]1c1cccc(C)n1 | 4
C=CCNCC(=O)N1CCc2sccc2C1c1ccccc1 (centres unmarked) | 68
CC(=O)N1CCc2sccc2C1c1ccccn1 (centres unmarked) | 49
CC(C)CNCC(=O)N1CCc2ccccc2C1c1ccccc1 (stereo in doubt) [Compound 42] | 6
C=CC(=O)N1CCCCC1c1ccccn1 (centres unmarked) | 8
CCC(C)CNCC(=O)N1CCCCC1c1ccccn1 (centres unmarked) | 8
CC(=O)N1CCc2sccc2C1c1ccccc1 (centres unmarked) | 66
CC(C)CNCC(=O)N1CCc2ccccc2C1c1ccccc1 (stereo in doubt) [Compound 43] | 88
Cc1cccc(C2NCCc3sccc32)c1 (centres unmarked) | 5
COCCNC(=O)N1CCc2ccccc2C1c1ccccc1 (centres unmarked) | 0
C=CCN1CCc2sccc2C1c1cccc(C)c1 (centres unmarked) | -1
Cc1cccc([C@@H]2c3ccsc3CCN2C(=O)CNCC(C)C)n1 | 13
CCC(C)CNCC(=O)N1CCc2ccc(Cl)cc2C1c1ccccc1 (centres unmarked) | 89
CCC(C)CNCC(=O)N1CCc2sccc2C1c1ccccn1 (centres unmarked) | 81
CCC(C)CNCC(=O)N1CCc2cc(OC)c(OC)cc2C1c1ccccc1 (centres unmarked) | 7
CCC(C)CNCC(=O)N1CCc2sccc2C1COc1cccc(C)c1 (centres unmarked) | 52
Clc1ccc(OCC2NCCc3sccc32)cc1 (centres unmarked) | 16
CC(=S)N1CCc2sccc2C1c1ccccc1 (centres unmarked) | 44
CCC(C)CNCC(=O)N1CCc2ccccc2C1c1ccccc1 (centres unmarked) | 91
Cc1cccc(C2c3ccsc3CCN2C(=O)CNCC(C)C)n1 (centres unmarked) | 91
CC(=O)N1CCc2sccc2[C@@H]1c1cccc(C)n1 | 76
N[C@H](C(=O)N1CCc2sccc2C1c1ccccc1)c1ccccc1 (some centres unmarked) | 18
CCC(C)CNCC(=O)N1CCc2sccc2C1c1ccccc1OC (centres unmarked) | 66
C=CC(=O)N1CCn2cccc2C1c1ccccc1 (centres unmarked) | 7
C=CC(=O)N1CCCCC1c1ccccc1 (centres unmarked) | -2
CCC(C)CNCC(=O)N1CCc2sccc2C1C1CCCCC1 (centres unmarked) | 24
CC(=O)N1CCCCC1c1ccccc1 (centres unmarked) | -14
COc1ccccc1C1c2ccsc2CCN1C(C)=O (centres unmarked) | 68
CC(C)CCNC(=O)N1CCc2ccccc2C1c1ccccc1 (centres unmarked) | 0
CCC(C)CNCC(=O)N1CCc2sccc2C1c1cccc(C)c1 (centres unmarked) | 93
N[C@@H](Cc1ccccc1)C(=O)N1CCc2sccc2C1c1ccccc1 (some centres unmarked) | -6
CC(=O)N1CCc2sccc2C1C1CCCCC1 (centres unmarked) | 6
Cc1cccc(C2c3ccsc3CCN2C(=O)CNCCC(C)C)n1 (centres unmarked) | 80
CCC(C)CNCC(=O)N1CCc2sccc2C1c1ccccc1O (centres unmarked) | 92

Values from paper PMC10823475
